target: Epidermal growth factor receptor (Homo sapiens, UniProt P00533)
Sequence (P00533 whole entry): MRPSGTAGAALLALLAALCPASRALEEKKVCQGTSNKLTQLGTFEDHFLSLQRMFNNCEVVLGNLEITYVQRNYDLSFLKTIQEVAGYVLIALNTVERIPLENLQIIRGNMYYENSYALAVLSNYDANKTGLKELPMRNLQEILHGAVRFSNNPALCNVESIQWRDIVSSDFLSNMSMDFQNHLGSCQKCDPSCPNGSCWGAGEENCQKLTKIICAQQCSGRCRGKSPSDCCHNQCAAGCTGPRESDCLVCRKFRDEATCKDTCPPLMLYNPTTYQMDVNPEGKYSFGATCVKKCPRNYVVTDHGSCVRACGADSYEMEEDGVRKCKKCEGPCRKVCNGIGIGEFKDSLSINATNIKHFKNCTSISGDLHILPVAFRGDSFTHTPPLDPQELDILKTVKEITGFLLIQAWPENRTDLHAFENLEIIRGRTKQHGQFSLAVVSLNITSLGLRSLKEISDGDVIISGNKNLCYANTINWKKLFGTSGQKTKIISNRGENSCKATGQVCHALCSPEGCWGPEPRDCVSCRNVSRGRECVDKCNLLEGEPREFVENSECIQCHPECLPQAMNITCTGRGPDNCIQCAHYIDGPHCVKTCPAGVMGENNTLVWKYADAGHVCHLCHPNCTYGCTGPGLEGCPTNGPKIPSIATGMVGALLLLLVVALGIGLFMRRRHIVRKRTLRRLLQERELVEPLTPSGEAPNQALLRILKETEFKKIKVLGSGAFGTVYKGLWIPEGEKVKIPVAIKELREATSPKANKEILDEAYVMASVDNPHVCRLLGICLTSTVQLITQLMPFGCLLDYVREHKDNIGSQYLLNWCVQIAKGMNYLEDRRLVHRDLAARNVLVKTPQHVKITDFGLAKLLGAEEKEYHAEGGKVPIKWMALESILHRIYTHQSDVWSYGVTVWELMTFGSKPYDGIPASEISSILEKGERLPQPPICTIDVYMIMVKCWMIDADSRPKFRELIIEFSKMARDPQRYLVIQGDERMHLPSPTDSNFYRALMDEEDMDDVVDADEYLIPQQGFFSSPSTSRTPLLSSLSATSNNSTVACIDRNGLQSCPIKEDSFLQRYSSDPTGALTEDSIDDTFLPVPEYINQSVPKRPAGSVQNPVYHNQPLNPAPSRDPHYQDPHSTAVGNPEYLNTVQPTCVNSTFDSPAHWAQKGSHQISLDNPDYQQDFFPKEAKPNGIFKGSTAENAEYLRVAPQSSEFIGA
readout name: IC50 (nM)
Give the number; nM is assumed, so skip it.

Incoming: Form field: reported IC50 of CN(C)C1CCN(c2ccc(Nc3ncc4nc(Sc5ccccc5)n(C5CCOCC5)c4n3)cc2)CC1
Outgoing: 1.6

* * *

test system: HCC827; assay: Antiproliferative activity against human HCC827 cells after 72 hrs by MTT assay; assay type: functional, cell-based; conditions: HCC827, 72 h
Field: label. Allowed values: true (IC50 < 500 nM) or false (IC50 >= 500 nM).

>>> category_label("CN(C)C1CCN(c2ccc(Nc3ncc4nc(Sc5ccccc5)n(C5CCOCC5)c4n3)cc2)CC1")
"true"
>>> category_label("CN1CCN(c2ccc(Nc3ncc4nc([S+]([O-])c5ccccc5)n(C5CCCC5)c4n3)cc2)CC1 (stereo not drawn)")
"true"
>>> category_label("CN1CCN(c2ccc(Nc3ncc4nc([S+]([O-])c5ccccc5)n([C@H]5CC[C@H](O)CC5)c4n3)cc2)CC1 (stereo partly drawn)")
"true"
>>> category_label("CN1CCN(c2ccc(Nc3ncc4nc([S+]([O-])Cc5cccnc5)n(C5CCCC5)c4n3)cc2)CC1 (stereo not drawn)")
"false"
>>> category_label("CN1CCN(c2ccc(Nc3ncc4nc(Sc5ccccc5)n(C5CC5)c4n3)cc2)CC1")
"true"
>>> category_label("CN1CCN(c2ccc(Nc3ncc4nc([S+]([O-])c5ccccc5)n(CC5CC5)c4n3)cc2)CC1 (stereo not drawn)")
"false"

We now examine a further compound.
Incoming: I'd appreciate it if you could check whether CN(C)CCOc1ccc(Nc2ncc3nc([S+]([O-])c4cccc(F)c4)n(C4CCOCC4)c3n2)cc1 (stereo not drawn) has IC50 smaller than 500 nM.
Outgoing: true
